Assay Target: D(3) dopamine receptor (Rattus norvegicus, UniProt P19020)
Sequence (P19020 whole entry): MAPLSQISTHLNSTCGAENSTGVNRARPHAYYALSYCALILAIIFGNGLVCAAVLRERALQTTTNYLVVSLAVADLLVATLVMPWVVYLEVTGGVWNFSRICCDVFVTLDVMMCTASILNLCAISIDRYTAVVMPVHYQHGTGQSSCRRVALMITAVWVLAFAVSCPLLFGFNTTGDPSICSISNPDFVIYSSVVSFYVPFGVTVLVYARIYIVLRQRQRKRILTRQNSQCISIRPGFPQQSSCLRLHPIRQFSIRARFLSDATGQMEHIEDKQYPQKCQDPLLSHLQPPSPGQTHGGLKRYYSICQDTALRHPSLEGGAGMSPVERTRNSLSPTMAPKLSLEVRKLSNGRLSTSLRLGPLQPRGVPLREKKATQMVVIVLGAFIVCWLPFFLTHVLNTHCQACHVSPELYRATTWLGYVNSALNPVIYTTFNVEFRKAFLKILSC
Assay Text: Effective concentration was determined as thymidine uptake in CHO-L6 cells transfected with the rat Dopamine receptor D3 by mitogenesis assay (intrinsic activity)
Readout Kind: EC50

[
  {
    "Compound": "CCCN(CCC)C1Cc2ccc3nc(N)sc3c2C1 (configuration not stated)",
    "EC50": "> 1000 nM"
  }
]

Here's the next entry for you.
What EC50 appears in the records for this compound with D(3) dopamine receptor (Rattus norvegicus, UniProt P19020)? CCCN(CCC)C1Cc2cc3nc(N)sc3cc2C1 (configuration not stated)
> 1000 nM

* * *

Listing of recorded EC50 by entry.
Assay Target: D(2) dopamine receptor (Rattus norvegicus, UniProt P61169)
Sequence (P61169 whole entry): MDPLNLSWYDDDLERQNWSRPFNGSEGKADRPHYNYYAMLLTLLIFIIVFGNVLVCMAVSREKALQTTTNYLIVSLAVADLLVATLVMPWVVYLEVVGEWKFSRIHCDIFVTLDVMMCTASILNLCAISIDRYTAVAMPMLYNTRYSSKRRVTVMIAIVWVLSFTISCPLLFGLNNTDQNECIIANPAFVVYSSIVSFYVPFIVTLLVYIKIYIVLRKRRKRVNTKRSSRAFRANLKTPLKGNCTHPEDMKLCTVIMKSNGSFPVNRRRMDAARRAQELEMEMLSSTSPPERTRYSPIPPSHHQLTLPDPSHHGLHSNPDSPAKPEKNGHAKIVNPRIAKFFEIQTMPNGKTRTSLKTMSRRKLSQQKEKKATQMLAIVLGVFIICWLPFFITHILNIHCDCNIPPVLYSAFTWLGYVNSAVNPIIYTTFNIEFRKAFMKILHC
Assay Text: Effective concentration was determined as thymidine uptake in CHO-L6 cells transfected with the rat Dopamine receptor D2L by mitogenesis assay (intrinsic activity)
Assay type: functional, cell-based
All answers are understood in µM, so give the number only.

[
  {
    "Molecule": "CCCN(CCC)C1Cc2cc3nc(N)sc3cc2C1 (configuration not stated)",
    "Unit Info": "µM",
    "EC50": 0.0057
  }
]

Here's the next entry for you.
What EC50 appears in the records for this molecule with D(2) dopamine receptor (Rattus norvegicus, UniProt P61169)? CCCN(CCC)C1Cc2ccc3nc(N)sc3c2C1 (configuration not stated)
0.0187
